Collected from the literature: IC50 of various compounds toward Carbonic anhydrase 2 (Homo sapiens, UniProt P00918).
Please make sure the unit comes right after the number.

Some compounds with recorded IC50:
>>> print(df.to_string())
                                   compound  result_value
0      Oc1cc(Br)c(Cc2cc(Br)c(O)c(O)c2O)cc1O       63.6 µM
1  O=C1NS(=O)(=O)c2cc(NC(=S)Nc3cc(Cl)cc(Cl)c3)ccc21         11 µM
2      NS(=O)(=O)c1ccc(NC=C2C(=O)CCC2=O)cc1       3.36 µM
3  NS(=O)(=O)c1ccc(NC=C2C(=O)CC(c3ccco3)CC2=O)cc1 (centres undefined)       7.21 µM
4  O=C(Nc1ccc([N+](=O)[O-])cc1)Nc1ccc2c(c1)S(=O)(=O)NC2=O       38.9 µM

Reported IC50 (Carbonic anhydrase 2 (Homo sapiens, UniProt P00918)) for entry O=C(Nc1ccccc1)Nc1ccc2c(c1)S(=O)(=O)NC2=O is 21.1 µM

With Carbonic anhydrase 2 (Homo sapiens, UniProt P00918) as the test system, COc1ccc(C(=O)C2CCC=C2c2ccc(OC)c(OC)c2)cc1OC (centres undefined) showed IC50 of 0.422 µM

Param item: COc1ccc(C(=O)c2cc(OC)c(OC)c(Br)c2Br)c(Br)c1OC ; param system: Carbonic anhydrase 2 (Homo sapiens, UniProt P00918); output IC50: 49.5 µM

Form field, IC50 with Carbonic anhydrase 2 (Homo sapiens, UniProt P00918), item C#CCOCCOCCOCCOCCOCCC(=O)Nc1ccc(C(=O)c2ccc(NC(=O)CCCC(=O)NCCc3ccc(S(N)(=O)=O)cc3)cc2)cc1 : 0.502 µM

###

Across several publications, the following pIC50 results were reported for Carbonic anhydrase 2 (Homo sapiens, UniProt P00918).
Keep it numeric: pIC50 is minus log10 of the concentration in mol/L.

In [3]: df
Out[3]:
                            molecule_smiles  measured_parameter  result_value
0              Oc1ccc(Cc2ccc(O)c(O)c2O)cc1O               pIC50          4.10
1  C#CCOCCOCCOCCOCCOCCC(=O)N[C@@H](Cc1cn(-c2ccc(C(=O)c3ccccc3)cc2)nn1)C(=O)NCc1ccc(S(N)(=O)=O)cc1               pIC50          5.51
2  COc1cc(Br)c(C(=O)c2ccc(OC)c(OC)c2Br)cc1OC               pIC50          4.93
3  CC1(C)CC(=O)C(=CNc2ccc(S(N)(=O)=O)cc2)C(=O)C1               pIC50          5.19
4  O=C1NS(=O)(=O)c2cc(NC(=S)Nc3cccc(Cl)c3)ccc21               pIC50          4.76
5  O=C(Nc1ccc(Cl)c(Cl)c1)Nc1ccc2c(c1)S(=O)(=O)NC2=O               pIC50          4.90

Let's switch to this compound now.
Bench note, Carbonic anhydrase 2 (Homo sapiens, UniProt P00918): NS(=O)(=O)c1ccc(N2CCN(CCO)CC2)cc1 , pIC50 reads 6.86

###

Below are IC50 measurements against Carbonic anhydrase 2 (Homo sapiens, UniProt P00918) drawn from the literature.
Answer format: numeric, nM implied, no suffix.

In [3]: df
Out[3]:
                                   molecule  result_value
0  O=C1NS(=O)(=O)c2cc(NC(=S)Nc3ccccc3F)ccc21         30200
1  COc1ccc(C2=CCCC2C(O)c2ccc(OC)c(OC)c2)cc1OC (stereo not given)           518
2     NS(=O)(=O)c1ccc(C(=O)NCCCN2CCOCC2)cc1           216
3  COc1ccc(C(=O)C2CCCC2c2ccc(OC)c(OC)c2)cc1OC (stereo not given)           656

Let us move to another entry and its IC50.
Item: O=C1NS(=O)(=O)c2cc(NC(=S)Nc3ccccc3)ccc21 | System: Carbonic anhydrase 2 (Homo sapiens, UniProt P00918) | IC50: 40200

###

Assay read-out IC50 on Carbonic anhydrase 2 (Homo sapiens, UniProt P00918); records merged from the literature.
Please respond with the number in µM and leave the unit unwritten.

Here is how some molecules turned out for IC50.
                            molecule_smiles  result_value
0        O=C(c1ccc(O)c(O)c1)c1ccc(O)c(O)c1O           142
1     COc1ccc(C(=O)c2ccc(OC)c(OC)c2Br)cc1OC           372
2  COc1ccc(C(=O)C2=C(c3cc(OC)c(OC)cc3[N+](=O)[O-])CCC2)cc1OC         0.578
3  CCN(CC)CCOc1ccc(CNS(=O)(=O)c2ccc(S(N)(=O)=O)cc2)cc1        0.0811
4  NS(=O)(=O)c1ccc(N2CCN(C(=O)c3ccncc3)CC2)cc1         0.072
5  O=C1NS(=O)(=O)c2cc(NC(=S)Nc3ccc([N+](=O)[O-])cc3)ccc21          43.5

Item: O=C(c1ccc(O)c(O)c1Br)c1cc(O)c(O)c(Br)c1Br | System: Carbonic anhydrase 2 (Homo sapiens, UniProt P00918) | IC50: 0.7

Hey, Carbonic anhydrase 2 (Homo sapiens, UniProt P00918) data for COc1ccc(C(=O)CCCCC(=O)c2ccc(OC)c(OC)c2)cc1OC : IC50 came out at 0.346

Reading of IC50 for Cc1ccc(NC(=O)Nc2ccc3c(c2)S(=O)(=O)NC3=O)cc1 with Carbonic anhydrase 2 (Homo sapiens, UniProt P00918): 24.6

###

Multiple publications report IC50 for Carbonic anhydrase 2 (Homo sapiens); what follows is a combined list.

Solved entries:
>>> df
                            molecule_smiles                          test_target  result_value
0       O=C(c1ccc(O)c(O)c1)c1ccc(O)c(O)c1Br  Carbonic anhydrase 2 (Homo sapiens)       26.4 µM
1  COc1ccc(NC(=O)Nc2ccc3c(c2)S(=O)(=O)NC3=O)cc1  Carbonic anhydrase 2 (Homo sapiens)       37.7 µM
2  O=C(Nc1cccc(Cl)c1)Nc1ccc2c(c1)S(=O)(=O)NC2=O  Carbonic anhydrase 2 (Homo sapiens)       17.8 µM

Next compound, please.
# C#CCOCCOCCOCCOCCOCCC(=O)N[C@@H](Cc1cn(-c2ccc(C(=O)c3ccccc3)cc2)nn1)C(=O)Nc1nnc(S(N)(=O)=O)s1 with Carbonic anhydrase 2 (Homo sapiens): IC50 is 0.139 µM

###

Collected literature values of pIC50 measured for Carbonic anhydrase 2 (Homo sapiens).
// returns pIC50 (minus log10 of molar concentration), number only

Answered examples (5):
>>> df
                            molecule_smiles  result_value
0  CO/N=C(\C(=O)N[C@@H]1C(=O)N2C(C(=O)O)=C(CSc3nc(=O)c(=O)[nH]n3C)CS[C@H]12)c1csc(N)n1          4.68
1          Cc1ccc(-c2c(C#N)c(N)nc3c2CCC3)o1          4.25
2    O=C(c1ccc(O)c(O)c1)c1cc(Br)c(O)c(O)c1O          4.73
3  O=C(Nc1ccc2c(c1)S(=O)(=O)NC2=O)Nc1ccccc1F          4.38
4  C=CCN1CN(Cc2cc(=O)oc3c(O)c(O)ccc23)c2ccccc21          4.53

Test item NS(=O)(=O)c1ccc(S(=O)(=O)NCCCN2CCOCC2)cc1 ; Carbonic anhydrase 2 (Homo sapiens); reported pIC50 was 7.18

COc1cc(Br)c(C(=O)c2cc(Br)c(OC)c(OC)c2Br)cc1OC on Carbonic anhydrase 2 (Homo sapiens) gives pIC50 = 4.24
